- Measured target: Voltage-gated inwardly rectifying potassium channel KCNH2 (Homo sapiens) (UniProt Q12809)
- Sequence (Q12809 whole entry, looked up): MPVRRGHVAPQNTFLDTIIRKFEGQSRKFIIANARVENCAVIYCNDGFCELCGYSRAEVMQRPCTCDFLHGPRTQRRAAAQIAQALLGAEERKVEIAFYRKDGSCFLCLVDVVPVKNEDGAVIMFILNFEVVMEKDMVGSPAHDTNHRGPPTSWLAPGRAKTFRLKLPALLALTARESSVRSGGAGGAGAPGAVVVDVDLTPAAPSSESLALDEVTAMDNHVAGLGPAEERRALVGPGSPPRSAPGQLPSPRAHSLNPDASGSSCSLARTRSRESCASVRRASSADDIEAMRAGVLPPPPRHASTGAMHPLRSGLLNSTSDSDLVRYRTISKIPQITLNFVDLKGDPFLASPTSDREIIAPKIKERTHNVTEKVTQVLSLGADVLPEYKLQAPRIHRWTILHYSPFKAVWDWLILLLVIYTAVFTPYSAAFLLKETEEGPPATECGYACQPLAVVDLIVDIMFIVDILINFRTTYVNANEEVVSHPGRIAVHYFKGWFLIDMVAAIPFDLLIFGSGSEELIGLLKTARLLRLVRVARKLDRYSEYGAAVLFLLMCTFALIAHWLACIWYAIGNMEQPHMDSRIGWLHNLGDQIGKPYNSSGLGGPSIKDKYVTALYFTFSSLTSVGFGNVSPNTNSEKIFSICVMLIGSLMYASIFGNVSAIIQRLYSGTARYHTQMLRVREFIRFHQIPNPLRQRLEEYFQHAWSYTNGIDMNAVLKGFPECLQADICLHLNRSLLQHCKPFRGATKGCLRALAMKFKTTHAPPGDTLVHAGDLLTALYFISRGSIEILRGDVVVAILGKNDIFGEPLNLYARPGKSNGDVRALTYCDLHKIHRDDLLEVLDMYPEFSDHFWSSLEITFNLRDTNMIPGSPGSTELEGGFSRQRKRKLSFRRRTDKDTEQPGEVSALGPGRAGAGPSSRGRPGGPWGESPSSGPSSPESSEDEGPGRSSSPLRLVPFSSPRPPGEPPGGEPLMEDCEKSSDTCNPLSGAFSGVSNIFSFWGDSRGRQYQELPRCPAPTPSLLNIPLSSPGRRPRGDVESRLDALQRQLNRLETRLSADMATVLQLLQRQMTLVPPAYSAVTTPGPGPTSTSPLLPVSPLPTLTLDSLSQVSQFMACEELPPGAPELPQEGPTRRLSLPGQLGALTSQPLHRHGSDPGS
- Experiment notes: qHTS Assay for Small Molecule Inhibitors of the Human hERG Channel Activity (AID 588834);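 further: lower thallium flux fluorescence means stronger hERG block; nearly all actives have a fitted effect of over 50% in size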
- Assay context: U2OS BacMam hERG, FluxOR thallium flux fluorescence; series mostly up to 46.1 µM
Results filed as inconclusive are left out. Activity calls are given as the source filed them. The call rests on the fitted dose curve; in most records, active means well fitted inhibition curve with a large enough effect; inconclusive means small, poorly fitted or top-dose-only effect; inactive means flat fitted curve, though single readings scatter.
Permitted responses: active, inactive

For orientation, consider the following solved cases.
{"Compound": "N#C/C(=C\\c1c[nH]c2ccccc12)C(=O)c1ccc(O)c(O)c1", "Assigned label": "inactive"}
{"Compound": "CC[C@H]1OC(=O)[C@H](C)C(=O)[C@H](C)[C@@H](O[C@@H]2O[C@H](C)C[C@H](N(C)C)[C@H]2O)[C@](C)(OC)C[C@@H](C)C(=O)[C@H](C)[C@H]2N(CCCCn3cnc(-c4cccnc4)c3)C(=O)O[C@]12C", "Assigned label": "inactive"}
{"Compound": "N=c1ccn2c(n1)O[C@H]1[C@H](O)[C@@H](CO)O[C@H]12", "Assigned label": "inactive"}
{"Compound": "O=c1[nH]c2ccccc2n1CCCN1CCN(C(c2ccccc2)c2ccccc2)CC1", "Assigned label": "active"}
{"Compound": "NC(CCCP(=O)(O)O)C(=O)O (configuration not stated)", "Assigned label": "inactive"}

Task: GET /call?item= `CCOC(=O)c1ccccc1O` returns the recorded outcome of this test.
Output: inactive

Task: Test call, this compound: `C[C@@H](NC(=O)/C(C#N)=C/c1ccc(O)c(O)c1)c1ccccc1`
Output: inactive

Task: # outcome recorded in this test, key = `NCCSSCCN`
Output: inactive

Task: State the result this test recorded for CCCCC/C=C\CC(O)/C=C/c1cccc(CC(O)CCCCO)n1 (configuration not stated) .
Output: inactive

Task: Please let me know the test result on file for `CN1CCc2cc(NC(=O)Nc3cccnc3)ccc21` .
Output: inactive

Task: Hi, do you know how `COc1ccc(-c2cc(=S)ss2)cc1` came out in this test?
Output: inactive

Task: Hey, what did the test say about COc1cc2nc(N3CCN(C(=O)OCc4ccccc4)C(C(=O)NC(C)(C)C)C3)nc(N)c2cc1OC (configuration not stated) ?
Output: inactive

Task: So what was the verdict on `Nc1ccc([N+](=O)[O-])cc1O` in this test?
Output: inactive
